// IFNy Concentration pg/ml, Day 9, IS lookup, one value per entry
tgt: canine CD3 on canine T cells (canine PBMC) (canine, UniProt P27597 22-202)
Sequence (P27597 22-202 limits assumed, chain 1 of 3): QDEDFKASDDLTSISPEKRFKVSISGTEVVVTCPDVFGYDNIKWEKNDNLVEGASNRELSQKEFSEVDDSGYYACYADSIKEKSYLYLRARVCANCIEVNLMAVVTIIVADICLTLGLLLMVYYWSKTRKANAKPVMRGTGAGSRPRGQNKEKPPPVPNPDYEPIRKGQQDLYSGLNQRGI
Sequence (chain, as listed by the source limits assumed, chain 2 of 3): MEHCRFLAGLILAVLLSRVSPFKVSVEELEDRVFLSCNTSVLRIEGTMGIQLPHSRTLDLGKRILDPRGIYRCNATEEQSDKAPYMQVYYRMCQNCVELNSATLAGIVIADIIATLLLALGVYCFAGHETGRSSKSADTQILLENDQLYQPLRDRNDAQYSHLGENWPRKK
Sequence (chain, as listed by the source limits assumed, chain 3 of 3): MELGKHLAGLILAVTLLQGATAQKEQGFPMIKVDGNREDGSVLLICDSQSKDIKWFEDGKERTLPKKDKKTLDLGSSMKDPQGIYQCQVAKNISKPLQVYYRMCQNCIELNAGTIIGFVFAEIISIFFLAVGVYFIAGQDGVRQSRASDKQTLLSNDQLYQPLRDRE
experimental.details: cell-based or functional assay
State just the number; it will be interpreted in pg/mL.

Qu. Endpoint output: IFNy Concentration pg/ml, Day 9, IS of PMX168 (monospecific anti-canine CD3, canine IgG-B effector function deficient Fc) (antibody, V domains shown) VH: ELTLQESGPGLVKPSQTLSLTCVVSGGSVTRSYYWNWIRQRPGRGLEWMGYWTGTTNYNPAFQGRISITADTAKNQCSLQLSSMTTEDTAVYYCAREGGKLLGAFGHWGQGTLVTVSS VL: SYVLTQLPSKNVTLKQPAHITCGGDKIGSKSVHWYQQKLGQAPVLIIYYDSSRPTGIPERFSGANSGNTATLTISGALAEDEADYYCQVWDSSAKASVFGGGTHLTVL . Value?
Ans. 301

Qu. Endpoint output: IFNy Concentration pg/ml, Day 9, IS of PMX163 (monospecific anti-canine CD3, canine IgG-B effector function deficient Fc) (antibody, V domains shown) VH: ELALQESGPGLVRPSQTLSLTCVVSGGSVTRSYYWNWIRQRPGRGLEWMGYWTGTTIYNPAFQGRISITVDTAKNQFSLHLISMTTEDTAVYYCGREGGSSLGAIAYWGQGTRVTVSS VL: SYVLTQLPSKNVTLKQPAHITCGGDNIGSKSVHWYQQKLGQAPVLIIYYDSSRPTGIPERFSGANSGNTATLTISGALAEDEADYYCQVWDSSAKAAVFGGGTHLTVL . Value?
Ans. 145
